test system: COLO 205 colon; test: NCI-60 one-dose screen, 48 h; conditions: 10 µM unless noted
About 83,000 compounds went through this panel and 20% of them were active in at least one assay; those are over-represented in the sample as a whole. Active and inactive are the calls of the source. Rule for the calls: active = growth percent below 10; inactive = the rest.
Select the correct class. Options are t = active, f = inactive and nothing else.

{"columns": ["Compound", "Class"],
 "data": [
  ["Cc1ccc(S(=O)(=O)N2CCCC2CO)cc1 (configuration not stated)", "f"],
  ["CCCCN[C@H]1CC[C@@]2(C)[C@@H](CC[C@@]3(C)[C@H]2[C@H](O)C[C@H]2/C(=C(\\CCC=C(C)C)C(=O)OC)[C@@H](OC(C)=O)C[C@@]23C)[C@@H]1C", "f"],
  ["COc1ccc(/C=C2\\COc3ccc(O)cc3C2=O)c(OC)c1OC", "f"],
  ["CN(C)CCNc1nc2c3cc(Cl)ccc3nn2c2ccccc12", "f"],
  ["Cn1c(O)c(C=NCCN=Cc2c(O)n(C)c(=O)n(C)c2=O)c(=O)n(C)c1=O", "f"]
]}

Q: Can you look up the reported call for "C=C(C)[C@@H]1CC[C@]2(C(=O)OC)CC[C@]3(C)[C@H](CC[C@@H]4[C@@]5(C)C/C(=C/NC(N)=S)C(=O)C(C)(C)[C@@H]5CC[C@]43C)[C@@H]12" for me?
A: f

Q: Can you look up the reported call for "C#CCOc1cccc(Nc2ncnc3c(NC(=O)C=C)cccc23)c1" for me?
A: f

Q: Can you look up the reported call for "O=S(=O)(NCCCNc1nccc(-c2c(-c3ccc(F)c(O)c3)nc3occn23)n1)c1ccccc1" for me?
A: f

Q: Can you look up the reported call for "CN[C@]12CC3(C=CC(=O)C=C3)O[C@@]1(Cc1ccc(OC)cc1)N(C)C(=O)N2" for me?
A: f

Q: Can you look up the reported call for "COCCn1c(-c2csc(-c3cn(C)c4ccc(OC)cc34)n2)cc2cccnc21" for me?
A: f

Q: Can you look up the reported call for "COc1ccc2nc3ccc(OC)cc3c(SCCCN)c2c1" for me?
A: f

Q: Can you look up the reported call for "CCCCC(=O)c1ccco1" for me?
A: f

Q: Can you look up the reported call for "O=C(NNc1nccc(Nc2ccc(S(=O)(=O)Nc3ccncc3)cc2)n1)c1ccccc1" for me?
A: f

Q: Can you look up the reported call for "COc1ccc2c3c([nH]c2c1)C(=O)c1nc(C)ccc1C3=O" for me?
A: f

Q: Can you look up the reported call for "O=C(O)[C@@H]1c2ccccc2-c2ccccc2[C@H]1C(=O)O" for me?
A: f

Q: Can you look up the reported call for "O=c1c2cc(-c3ccccc3)sc2nc2sc(-c3ccccc3)nn12" for me?
A: f

Q: Can you look up the reported call for "COc1ccc2c(O)c(/C=C3\N=Nc4ncccc43)oc2c1C[C@H]1CCNC[C@H]1F" for me?
A: t

Q: Can you look up the reported call for "N#Cc1c(-c2cccs2)cc(-c2cccnc2)[nH]c1=O" for me?
A: f

Q: Can you look up the reported call for "CC(C)(C)[Si](C)(C)O[C@H]1C(=O)C=CN2CC=C[C@@H]12" for me?
A: f

Q: Can you look up the reported call for "O=C1c2cccnc2C(=O)c2c1c(C(=O)NCCn1ccnc1)c1ccccn21" for me?
A: t

Q: Can you look up the reported call for "O=S(=O)(Nc1ccc(Cl)cc1)c1ccc(-c2cnc(C3CC3)o2)cc1" for me?
A: t

Q: Can you look up the reported call for "Cc1noc(C)c1C(=O)OCc1coc2ccccc2c1=O" for me?
A: f

Q: Can you look up the reported call for "CO/N=C(/C)c1ccc(NC(=O)CSc2nnc(-c3ccncc3)n2-c2ccccc2)cc1" for me?
A: f

Q: Can you look up the reported call for "COc1cccc(/C=C/C(=O)c2cc3c(N)c(C(=O)Nc4ccccc4)sc3nc2C)c1" for me?
A: f

Q: Can you look up the reported call for "COC(=O)[C@]1(C)CCC[C@]2(C)[C@H]3C[C@H]4C(C(C)C)=C[C@]3(CC[C@H]21)[C@H]1[C@@H]4[C@@H](OCCC#N)CC[C@@H]1OCCC#N" for me?
A: f

---

test system: SR leukemia; test: NCI-60 one-dose screen, 48 h; details: 10 µM unless noted
The panel holds about 83,000 compounds, 20% with a hit somewhere; the sample as a whole holds those more often. Calls of active or inactive are those of the source. How the source made its calls: active means growth percent below 10; inactive means the rest.
Select the correct class. Options are TRUE (active), FALSE (inactive) and nothing else.

# example entries with known answers
{"columns": ["Compound", "Class"],
 "data": [
  ["Nc1ncnc2c1N=C(c1ccc(Cl)cc1)CC(c1ccc3c(c1)OCO3)N2 (stereo not drawn)", "FALSE"],
  ["O=C(Nc1ncc(Cc2ccc(Cl)c(C(F)(F)F)c2)s1)c1ccc2nnsc2c1", "FALSE"],
  ["CSc1nnc(-c2cnn3c2NC(c2ccccc2)C3)n1-c1ccc(C(F)(F)F)cc1 (stereo not drawn)", "FALSE"],
  ["Cc1nc2ncnc(Cl)c2[nH]1", "FALSE"],
  ["CCOC(=O)c1cn2ncnc(Oc3ccc(NC(=O)NC4CCCCC4)c(Cl)c3)c2c1C", "FALSE"]
]}

Q: Can you look up the reported call for "O=C1c2cc(Cl)ccc2S(=O)(=O)c2c(NCCCNCCO)nc3ccccc3c21" for me?
A: TRUE

Q: Can you look up the reported call for "N=C(N)c1ccc(-c2ccc(-c3ccc(F)cc3)o2)o1" for me?
A: TRUE

Q: Can you look up the reported call for "COc1cc(CNC(=O)CCCC/C=C/C(C)C)ccc1OCc1nnc(Nc2ccc([N+](=O)[O-])cc2)o1" for me?
A: FALSE

---

system: HCC-2998 colon; test: NCI-60 one-dose screen, 48 h; conditions: 10 µM unless noted
This is part of a sample that, as a whole, favours compounds with a hit. Of some 83,000 tested, about 20% had one in any assay. The source made the active and inactive calls. Rule for the calls: active = growth percent below 10; inactive = the rest.
Select the correct class. Options are Yes (active), No (inactive) and nothing else.

{"columns": ["Molecule", "Study Target", "Class"],
 "data": [
  ["Cc1ccc(/C=C2\\CN(C(=O)OC(C)(C)C)C/C(=C\\c3ccc(C)cc3)C2=O)cc1", "HCC-2998 colon", "No"],
  ["C#Cc1ccc(NC(=O)c2ccc(/C=C/C(=O)c3nccn3C)cc2)cc1", "HCC-2998 colon", "Yes"],
  ["CN1C(=O)/C(=C/c2ccc(C(=O)Nc3ncc(Cc4ccc(Cl)cc4)s3)cc2)SC1=S", "HCC-2998 colon", "No"],
  ["Cc1ccc(-c2nc(/C=C3/C(=O)Nc4ccccc43)c3ccccn23)cc1", "HCC-2998 colon", "No"],
  ["C=C(C)[C@@H]1CC[C@]2(C(=O)NCCNCCN)CC[C@]3(C)[C@H](CC[C@@H]4[C@@]5(C)C/C(=C/c6ccncc6)C(=O)C(C)(C)[C@@H]5CC[C@]43C)[C@@H]12", "HCC-2998 colon", "No"],
  ["CCNc1cc(-c2cccc(OC(F)(F)F)c2)nc2ccc(N3CCCC3)cc12", "HCC-2998 colon", "Yes"]
]}

Q: Can you look up the reported call for "N=C(N)c1ccc(-c2ccc(-c3ccc(Cl)cc3)s2)nc1" for me?
A: Yes

Q: Can you look up the reported call for COC(C(=O)[C@@H](O)[C@@H](C)O)[C@@H]1Cc2cc3cc(O[C@H]4C[C@@H](O[C@H]5C[C@@H](O)[C@H](O)C(C)O5)[C@H](O)C(C)O4)cc(O)c3c(O)c2C(=O)[C@H]1O[C@H]1C[C@@H](O[C@H]2C[C@@H](O[C@H]3C[C@@H](OC)[C@H](O)C(C)O3)[C@@H](O)C(C)O2)[C@H](O)C(C)O1 (stereo partly drawn) for me?
A: No

Q: Can you look up the reported call for "C1=C(N2CCCC2)CCC1" for me?
A: No

---

Field: growth. Provide a value for each of the molecules that follow.
tested on: UACC-257 melanoma; test: NCI-60 one-dose screen, 48 h (100 = growth as untreated, 0 = no growth, -100 = all killed); details: 10 µM unless noted
About 83,000 compounds went through this panel and 20% of them were active in at least one assay; those are over-represented in the sample as a whole.
One number for each entry, in %.

// for each molecule below, give its growth
1. COc1ccc2c(c1)[n+]([O-])c(C(=O)/C=C/C=C(\Cl)c1cc(OC)c(OC)c(OC)c1)c(C)[n+]2[O-]
2. CN1CCN(c2ccc(NC(=O)c3nc4ccc5[nH]ncc5c4c4c3CCCC4)cc2C(F)(F)F)CC1
3. N=C(N)c1ccc(-c2ccc(-c3ccc(Cl)cc3)s2)nc1
4. CN(CCn1sc(=O)n(Cc2ccccc2)c1=O)Cc1ccc2c(Cl)cc(Cl)c(O)c2n1

A:
[108, 98.7, 82.3, 78.5]

// for each molecule below, give its growth
1. OCCOCCN(Cc1ccccn1)Cc1cc(I)cc(I)c1O
2. O=C1c2cccc3cccc(c23)C(=O)N1N1C(=O)c2cccc3c(N4CCOCC4)ccc(c23)C1=O
3. CC(C)c1ccc(NC(=O)Nc2ccc(NC(=O)CCCC(=O)NOCc3ccccc3)cc2)cc1

A:
104
96.7
86.5

// for each molecule below, give its growth
1. COc1ccc(/C=N/C2=C(C#N)C(c3cccc(Cl)c3)c3c(ccc4ccccc34)O2)cc1 (centres undefined)
2. CN(C)c1ccc(Nc2cc(-c3cccc(OC(F)(F)F)c3)nc3ccc(N4CCCC4)cc23)cc1

A:
[62.6, 14.1]
